// data source = patent US20150175655A1

Collected pKi values appear next to each entry.
# Experimental system: NS3 genotype 3a protease (UniProt Q81258)
# Construct: Purified NS3 protease domain (amino acids 1-181) of the genotype 1b and 3a virus were generated as above; fused on or other part: N-terminal hexahistidine tag and rTEV protease cleavage site (vector p28-N6H-Tev-NS3(181)3)
# Measurement protocol: Ki determination, NS3 protease genotype 3a (fluorogenic depsipeptide substrate)
# Type: biochemical, hepatitis C virus
# Condition: 200 pM enzyme, 20 μM NS4A peptide, 2 μM substrate, read-out: Ki 3A
pKi: −log10 of the molar value.

>  <Molecule>
CC[C@@H]1[C@@H]2CN(C(=O)[C@H](C(C)(C)C)NC(=O)O[C@@H]3C[C@H]3CCCCCc3nc4ccc(OC)cc4nc3O2)[C@@H]1C(=O)N[C@]1(C(=O)NS(=O)(=O)C2CC2)C[C@H]1CC [Example 3]

>  <pKi>
9.25

$$$$
>  <Molecule>
CC[C@@H]1[C@@H]2CN(C(=O)[C@H](C(C)(C)C)NC(=O)O[C@@H]3C[C@H]3CC/C=C/C(F)(F)C3Nc4ccc(C#N)cc4N=C3O2)[C@@H]1C(=O)N[C@]1(C(=O)NS(=O)(=O)C2(C)CC2)C[C@H]1C(F)F (stereo partly drawn) [Example 78]

>  <pKi>
9.09

$$$$
>  <Molecule>
CC[C@@H]1[C@@H]2CN(C(=O)[C@H](C(C)(C)C)NC(=O)O[C@@]3(C)C[C@@H]3CCCCC(F)(F)c3nc4ccc(OC)cc4nc3O2)[C@@H]1C(=O)N[C@]1(C(=O)NS(=O)(=O)C2(C)CC2)C[C@H]1C(F)F [Example 64]

>  <pKi>
8.92

$$$$
>  <Molecule>
CC[C@@H]1[C@@H]2CN(C(=O)[C@H](C(C)(C)C)NC(=O)O[C@]3(C)CCC[C@H]3CCCCCc3nc4ccc(OC)cc4nc3O2)[C@@H]1C(=O)N[C@]1(C(=O)NS(=O)(=O)C2CC2)C[C@H]1C(F)F [Example 40]

>  <pKi>
9.74

$$$$
>  <Molecule>
COc1ccc2nc3c(nc2c1)O[C@H]1CN(C(=O)[C@H](C(C)(C)C)NC(=O)O[C@@H]2C[C@@H]4C[C@@H]4[C@H]2CCCCC3(F)F)[C@H](C(=O)N[C@]2(C(=O)NS(=O)(=O)C3(C)CC3)C[C@H]2C(F)F)[C@@H]1C [Example 81]

>  <pKi>
10.30

$$$$
>  <Molecule>
CC[C@@H]1[C@@H]2CN(C(=O)[C@H](C(C)(C)C)NC(=O)O[C@@H]3C[C@H]3CCCCC(F)(F)c3nc4ccc(OC)cc4nc3O2)[C@@H]1C(=O)N[C@]1(C(=O)NS(=O)(=O)C2(C)CC2)C[C@H]1CC(F)F [Example 35]

>  <pKi>
9.64

$$$$
>  <Molecule>
CC[C@@H]1[C@@H]2CN(C(=O)[C@H](C(C)(C)C)NC(=O)O[C@@H]3C[C@H]3CCCCCc3nc4ccc(OC)cc4nc3O2)[C@@H]1C(=O)N[C@]1(C(=O)NS(=O)(=O)C2(F)CC2)C[C@H]1C(F)F [Example 74]

>  <pKi>
9.92

$$$$
>  <Molecule>
CC[C@@H]1[C@@H]2CN(C(=O)[C@H](C(C)(C)C)NC(=O)O[C@@H]3C[C@H]3CCCCCc3nc4ccc(OC)cc4nc3O2)[C@@H]1C(=O)N[C@]1(C(=O)NS(=O)(=O)C2(C)CC2)C[C@H]1CC(F)F [Example 67]

>  <pKi>
9.49

$$$$
>  <Molecule>
CC[C@@H]1[C@@H]2CN(C(=O)[C@H](C(C)(C)C)NC(=O)O[C@@H]3C[C@H]3CCCCCc3nc4ccc(OC)cc4nc3O2)[C@@H]1C(=O)N[C@]1(C(=O)NS(=O)(=O)C2(C)CC2)C[C@H]1C [Example 73]

>  <pKi>
9.09

$$$$
